System: SK-MEL-2 melanoma
Assay: NCI tumour cell line growth inhibition, 48 h
// TGI lookup, one value per entry

- molecule: "Cc1ccc(N=NN(C)C(=O)C(C)N)cc1 (stereo not given)"
  testedOn: "SK-MEL-2 melanoma"
  relationalOperator: ">"
  TGI / µM: 100
- molecule: "COC(=O)/C=C1/SC(N2N=C(c3cccs3)CC2c2ccc(F)cc2)=NC1=O (stereo not given)"
  testedOn: "SK-MEL-2 melanoma"
  relationalOperator: "="
  TGI / µM: 15.6
- molecule: "O=S(=O)(c1ccccc1)n1cc(C[P+](c2ccccc2)(c2ccccc2)c2ccccc2)c2ccccc21"
  testedOn: "SK-MEL-2 melanoma"
  relationalOperator: "="
  TGI / µM: 5.87
- molecule: "CCCCNC(=O)c1cc(NCc2cc(O)ccc2O)ccc1O"
  testedOn: "SK-MEL-2 melanoma"
  relationalOperator: "="
  TGI / µM: 65
- molecule: "CC(C)(CCCCC(C)(C)C1NC(=O)N1)C1NC(=O)N1"
  testedOn: "SK-MEL-2 melanoma"
  relationalOperator: ">"
  TGI / µM: 10
- molecule: "CN1CCN(c2nc(NCCCNc3ccnc4cc(Cl)ccc34)c3ccccc3n2)CC1"
  testedOn: "SK-MEL-2 melanoma"
  relationalOperator: "="
  TGI / µM: 9.09
- molecule: "C/C=C/[C@H]1O[C@@H]2C(=C[C@H]1O)C(=O)O[C@H]2C"
  testedOn: "SK-MEL-2 melanoma"
  relationalOperator: ">"
  TGI / µM: 100
- molecule: "CC(C)(C)OC(=O)c1ccc(NCC2=CC(=O)C=CC2=O)cc1"
  testedOn: "SK-MEL-2 melanoma"
  relationalOperator: "="
  TGI / µM: 31.8
- molecule: "C[C@]12CC[C@H]3[C@@H](C[C@@H]4SC(Nc5ccccc5)=N[C@@]45CC(O)CC[C@]35C)[C@@H]1CCC2O (stereo not given in full)"
  testedOn: "SK-MEL-2 melanoma"
  relationalOperator: "="
  TGI / µM: 5.64
- molecule: "Nc1nc(N)c2c(n1)NC(c1ccccc1)C1CCc3ccccc3C1=N2 (stereo not given)"
  testedOn: "SK-MEL-2 melanoma"
  relationalOperator: "="
  TGI / µM: 14

----------
Each record here notes measured TGI.
Test system: NCI-H522 lung
Assay: NCI tumour cell line growth inhibition, 48 h
readoutName: TGI

- molecule: "Cc1cccc(N2C(=O)C(=O)C(c3nc4ccccc4s3)/C(=N/NC(=S)NN)C2=O)c1C (stereo not given)"
  testedOn: "NCI-H522 lung"
  readoutName: "TGI"
  result: "> 100 µM"
- molecule: "CCCCN(CCCC)CCC(O)c1cc2c(Cl)cc(Cl)cc2c2cc(C(F)(F)F)ccc12 (stereo not given)"
  testedOn: "NCI-H522 lung"
  readoutName: "TGI"
  result: "32.9 µM"
- molecule: "C#CC1(O)c2ccccc2C(=O)c2ccccc21"
  testedOn: "NCI-H522 lung"
  readoutName: "TGI"
  result: "> 100 µM"
- molecule: "C[C@]12CC[C@H]3[C@@H](C[C@@H]4SC(Nc5ccccc5)=N[C@@]45CC(O)CC[C@]35C)[C@@H]1CCC2O (stereo not given in full)"
  testedOn: "NCI-H522 lung"
  readoutName: "TGI"
  result: "4.5 µM"
- molecule: "O=C(CC(=O)N1N=C(N(c2ccccc2)c2ccccc2)CC1c1ccccc1)Nc1ccc(Cl)cc1 (stereo not given)"
  testedOn: "NCI-H522 lung"
  readoutName: "TGI"
  result: "> 100 µM"
- molecule: "NC(=O)C(=O)C(c1ccccc1)S(=O)(=O)Cc1ccccc1 (stereo not given)"
  testedOn: "NCI-H522 lung"
  readoutName: "TGI"
  result: "> 100 µM"
- molecule: "COc1ccc(/C=c2/sc3n(c2=O)NC2(CCC(C)CC2)NN=3)cc1 (stereo not given)"
  testedOn: "NCI-H522 lung"
  readoutName: "TGI"
  result: "> 100 µM"
- molecule: "Cc1ccc(N=NN(C)C(=O)C(C)N)cc1 (stereo not given)"
  testedOn: "NCI-H522 lung"
  readoutName: "TGI"
  result: "> 100 µM"
- molecule: "N#Cc1nc(-c2ccccn2)oc1N"
  testedOn: "NCI-H522 lung"
  readoutName: "TGI"
  result: "> 100 µM"
- molecule: "C=C(CC(=O)O)C(=O)O (tested in a mixture with another compound)"
  testedOn: "NCI-H522 lung"
  readoutName: "TGI"
  result: "> 50 µg/mL"

----------
System: UACC-257 melanoma
Assay: NCI tumour cell line growth inhibition, 48 h
Where a SMILES comes first, the peptide text is derived from it.

- compound: "COc1cc2ncnc(Nc3ccc4c(cnn4Cc4ccccc4)c3)c2cc1OC"
  testedOn: "UACC-257 melanoma"
  TGI: "> 25 µM"
- compound: "C=C(CC(=O)O)C(=O)O (tested in a mixture with another compound)"
  testedOn: "UACC-257 melanoma"
  TGI: "> 50 µg/mL"
- compound: "CN(C)S(=O)(=O)n1cnc(CO)c1"
  testedOn: "UACC-257 melanoma"
  TGI: "> 100 µM"
- compound: "CC(CNCCCNCCNCCCNCO)[N+](=O)[O-] (configuration not stated)"
  testedOn: "UACC-257 melanoma"
  TGI: "26.1 µM"
- compound: "CN(C)CC(C(=O)Cc1ccccc1)c1ccccc1 (configuration not stated)"
  testedOn: "UACC-257 melanoma"
  TGI: "4.25 µM"
- compound: "Cc1sc(C)c2c1C(=O)CC2N (configuration not stated)"
  testedOn: "UACC-257 melanoma"
  TGI: "33.3 µM"
- compound: "CCOC(=N)CC(=O)Nc1cccc(Cl)c1"
  testedOn: "UACC-257 melanoma"
  TGI: "> 100 µM"
- compound: "CC(C)CC(NC(=O)C(Cc1ccccc1)NC(=O)C(Cc1c[nH]c2ccccc12)NC(=O)CNC(=O)C(N)Cc1ccc(O)cc1)C(=O)O (configuration not stated) (H-YGWFL-OH; configuration not given here)"
  testedOn: "UACC-257 melanoma"
  TGI: "> 100 µM"
- compound: "Cc1ccc(C2=Nc3c(N)ncnc3NC(c3ccc4c(c3)OCO4)C2)cc1 (configuration not stated)"
  testedOn: "UACC-257 melanoma"
  TGI: "> 100 µM"
- compound: "COC(=O)c1ccccc1/C=C1\\Cc2c(C)cc(C)cc2C1=O"
  testedOn: "UACC-257 melanoma"
  TGI: "> 100 µM"
- compound: "C#CC1(O)c2ccccc2C(=O)c2ccccc21"
  testedOn: "UACC-257 melanoma"
  TGI: "> 100 µM"
- compound: "CC12CO[C@@](C)(CC(S(=O)(=O)c3ccccc3)C1)O2 (some centres not stated)"
  testedOn: "UACC-257 melanoma"
  TGI: "> 100 µM"
- compound: "CCCCOCc1cc(CN2CCN(C)CC2)c(O)c2ncccc12"
  testedOn: "UACC-257 melanoma"
  TGI: "> 100 µM"
- compound: "Oc1ccc(CCNCc2cc3c(cc2Br)OCO3)cc1"
  testedOn: "UACC-257 melanoma"
  TGI: "> 100 µM"
- compound: "NCCCCC(=O)c1cccnc1"
  testedOn: "UACC-257 melanoma"
  TGI: "> 100 µM"
- compound: "C/C=C/[C@H]1O[C@@H]2C(=C[C@H]1O)C(=O)O[C@H]2C"
  testedOn: "UACC-257 melanoma"
  TGI: "43.7 µM"
- compound: "Oc1ccccc1C1=NOC(c2ccc(C(F)(F)F)cc2)C1 (configuration not stated)"
  testedOn: "UACC-257 melanoma"
  TGI: "> 50 µM"
- compound: "O=[N+]([O-])c1ccccc1C=NC12CC3CC(CC(C3)C1)C2"
  testedOn: "UACC-257 melanoma"
  TGI: "> 100 µM"
- compound: "NC(=O)N/N=C(/Cc1nc2ccc(C(=O)c3ccccc3)cc2[nH]c1=O)C(=O)Nc1ccc(C(F)(F)F)cc1[N+](=O)[O-]"
  testedOn: "UACC-257 melanoma"
  TGI: "> 100 µM"
- compound: "CCOC(=O)c1c(-c2ccc(Br)cc2)ccn1C"
  testedOn: "UACC-257 melanoma"
  TGI: "> 10 µM"
- compound: "CCCCNC(=O)Oc1ccc(/C(=C(/C)Cc2ccc(OC)cc2)c2ccc(OCCN3CCCC3)cc2)cc1"
  testedOn: "UACC-257 melanoma"
  TGI: "3.44 µM"
- compound: "CC(C)CC(Nc1c(O)ccc2ccccc12)C(=O)O (configuration not stated)"
  testedOn: "UACC-257 melanoma"
  TGI: "50.3 µM"

----------
Test system: HCC-2998 colon
Assay: NCI tumour cell line growth inhibition, 48 h; in the data active means GI50 below about 0.43 µM; inactive means the rest
Classes used: active, inactive

- compound: "CCCCNC(=O)Oc1ccc(/C(=C(/C)Cc2ccc(OC)cc2)c2ccc(OCCN3CCCC3)cc2)cc1"
  labelClass: "inactive"
- compound: "c1cncc(C2Nc3cccc4cccc(c34)N2)c1"
  labelClass: "inactive"
- compound: "CCc1cc2ncc(CN3CCN(c4ccc(C(=O)NC)nc4)CC3)cc2[nH]c1=O"
  labelClass: "inactive"
- compound: "O=[n+]1c2ccccc2n([O-])c2cc(Cl)ccc21"
  labelClass: "inactive"
- compound: "COc1cc(C2C3=C(COC3=O)Nc3c2ccc2c3CCCC2)cc2c1OCO2 (configuration not stated)"
  labelClass: "active"
- compound: "CC(=O)C1=C(C)N(C)C2(O)C=CC(=O)C3=C(O)c4ccccc4C(=O)C312 (configuration not stated)"
  labelClass: "inactive"
- compound: "COc1cc(N2CCN(C(C)C)CC2)ccc1Nc1nc(Nc2cccc(F)c2C(=O)O)c2cc[nH]c2n1"
  labelClass: "inactive"
- compound: "OCCNCCCOc1ccc2ncnc(Nc3ccc(Oc4cccc(C(F)(F)F)c4)c(Cl)c3)c2c1"
  labelClass: "inactive"
- compound: "COc1cc(-c2n/c(=C\\c3c(O)[nH]c4cc(Cl)ccc34)cc3c2=Nc2ccccc2-3)cc(OC)c1OC"
  labelClass: "inactive"
- compound: "NCCOc1ccccc1/C=C1\\c2ccccc2-c2ccc([N+](=O)[O-])cc21"
  labelClass: "inactive"
- compound: "Cc1[nH]c(-c2nc3ccccc3[nH]2)c(C)c1C(=O)NC(C)C1CCCCC1 (configuration not stated)"
  labelClass: "inactive"
- compound: "COCCN1CCN(Cc2ccc(-c3n[nH]c4c3C(=O)c3c(NC(=O)NN5CCOCC5)cccc3-4)cc2)CC1"
  labelClass: "active"

Origin of the recorded values: PubChem BioAssay (NCI)
